Target: T1, LgBiT (C-terminal GTTSA linker and Strep-tag (WSHPQFEK) omitted)
T1 chain: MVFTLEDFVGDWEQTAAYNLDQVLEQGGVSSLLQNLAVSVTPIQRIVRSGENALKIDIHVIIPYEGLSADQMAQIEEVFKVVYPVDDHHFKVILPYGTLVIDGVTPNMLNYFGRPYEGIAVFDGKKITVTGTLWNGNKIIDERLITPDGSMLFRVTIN
Experiment: split reporter (BiFC, NanoBiT); competition: DarkBiT101 titrated to 75 pM SmBiT86 and 0.75 nM LgBiT, loss of luminescence; 1x PBS, 0.02% Tween20, 4 °C for 16 h before addition of 1:1000 NanoGlo
Conditions: both partners purified

# binder, measure_unit, Ki
records = [
    ("VTGYALFEKES [DarkBiT101 peptide]", "nM", 2600),
]

Reference for the values: paper PMC9791688
